Biological target: human ether-à-go-go-related gene (hERG) potassium channel (human);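 also: peak tail current of the secondary pulse compared with the same well before compound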
Sequence (Q12809 whole entry, looked up): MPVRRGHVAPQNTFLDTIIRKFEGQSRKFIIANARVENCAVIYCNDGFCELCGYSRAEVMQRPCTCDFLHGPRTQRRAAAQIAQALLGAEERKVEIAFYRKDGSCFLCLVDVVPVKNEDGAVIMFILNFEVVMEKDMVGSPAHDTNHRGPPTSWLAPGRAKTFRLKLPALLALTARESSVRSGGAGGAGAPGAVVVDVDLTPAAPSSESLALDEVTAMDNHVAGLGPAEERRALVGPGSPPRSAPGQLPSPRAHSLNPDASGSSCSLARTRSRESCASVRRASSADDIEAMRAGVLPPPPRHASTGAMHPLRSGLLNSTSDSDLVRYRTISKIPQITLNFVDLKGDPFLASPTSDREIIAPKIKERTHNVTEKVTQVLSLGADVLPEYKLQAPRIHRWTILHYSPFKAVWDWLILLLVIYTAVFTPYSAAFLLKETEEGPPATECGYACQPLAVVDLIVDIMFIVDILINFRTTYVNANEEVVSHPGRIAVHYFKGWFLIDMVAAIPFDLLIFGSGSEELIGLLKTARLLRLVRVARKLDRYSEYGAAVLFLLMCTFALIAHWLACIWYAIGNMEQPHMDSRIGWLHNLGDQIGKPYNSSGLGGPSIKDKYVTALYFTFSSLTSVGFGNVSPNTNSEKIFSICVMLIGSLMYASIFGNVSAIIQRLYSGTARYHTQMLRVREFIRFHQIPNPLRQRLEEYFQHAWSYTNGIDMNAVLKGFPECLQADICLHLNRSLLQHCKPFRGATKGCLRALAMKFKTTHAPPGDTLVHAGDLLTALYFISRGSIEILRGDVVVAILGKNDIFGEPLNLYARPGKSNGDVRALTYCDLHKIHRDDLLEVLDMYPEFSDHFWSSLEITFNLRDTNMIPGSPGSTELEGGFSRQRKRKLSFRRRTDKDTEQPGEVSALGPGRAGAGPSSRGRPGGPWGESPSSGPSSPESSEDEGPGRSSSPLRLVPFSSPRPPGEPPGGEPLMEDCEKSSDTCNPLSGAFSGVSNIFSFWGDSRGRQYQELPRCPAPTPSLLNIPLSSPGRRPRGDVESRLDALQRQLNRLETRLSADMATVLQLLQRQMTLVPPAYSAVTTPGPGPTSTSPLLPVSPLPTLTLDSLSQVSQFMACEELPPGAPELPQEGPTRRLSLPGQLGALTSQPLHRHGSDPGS
Assay: primary screen, population patch clamp on CHO cells stably expressing hERG; higher = less effect of the substance
Out of some 310,000 compounds screened, about 14,000 (4.5%) showed an effect of 50% or more. Effects have a minus sign here. The sample holds strong results, similar compounds and a random draw of the others, so the mix is not that of the screen.
Provide the reported hERG current change (%, negative = inhibition) at 10uM of each item.
Express the result in % but write the number alone.

hERG current change (%, negative = inhibition) at 10uM reading for `O=C(CN1CCC(NC(=O)Nc2ccccc2)CC1)Nc1ccccc1F` : -18.3

hERG current change (%, negative = inhibition) at 10uM reading for `Cc1ccccc1NC(=O)CN1CCC(NC(=O)Nc2ccccc2)CC1` : -35.9

hERG current change (%, negative = inhibition) at 10uM reading for `CCCCn1c(CCCNC(=O)c2ccco2)nc2ccccc21` : -40.5

hERG current change (%, negative = inhibition) at 10uM reading for COC(=O)c1ccc(CN2CCCC(CO)(Cc3ccccc3F)C2)cc1 (stereo not shown) : -32.7

hERG current change (%, negative = inhibition) at 10uM reading for `Cc1ccc(C(=O)CSc2ccccn2)cc1` : -7.25

hERG current change (%, negative = inhibition) at 10uM reading for CCC(C)NC(=S)Nc1ccc2nc(N3CCOCC3)cc(C)c2c1 (stereo not shown) : 5.86

hERG current change (%, negative = inhibition) at 10uM reading for `COc1ccc(NC(=O)CSCC(=O)Nc2ccccc2N2CCCC2)cc1` : -7.76

hERG current change (%, negative = inhibition) at 10uM reading for `Cc1cccc(-n2[nH]c3c4c(ccc3c2=O)C(=O)c2ccccc2C4=O)c1` : 4.95

hERG current change (%, negative = inhibition) at 10uM reading for COc1cc(/C=N/NC(=O)C(NC(=O)c2ccccc2)c2n[nH]c(=O)c3ccccc23)ccc1OCC(N)=O (stereo not shown) : 5.88

hERG current change (%, negative = inhibition) at 10uM reading for `Cn1cc(CN2CCC(n3nccc3NC(=O)CCCc3ccccc3)CC2)cn1` : 5.95

hERG current change (%, negative = inhibition) at 10uM reading for CCOc1ccc(CN2CCCC(CO)(Cc3ccc(F)cc3)C2)cc1 (stereo not shown) : -62

hERG current change (%, negative = inhibition) at 10uM reading for `CC(=O)Nc1ccc(Oc2cc(NC(C)=O)cc([N+](=O)[O-])c2)cc1` : 6.36

hERG current change (%, negative = inhibition) at 10uM reading for `COc1ccc(S(=O)(=O)N2CCN(CC(=O)Nc3cccc(F)c3)CC2)cc1` : -54.1

hERG current change (%, negative = inhibition) at 10uM reading for CCn1cc(CN2CCCC(CO)(Cc3ccc(F)cc3)C2)c2ccccc21 (stereo not shown) : -32

hERG current change (%, negative = inhibition) at 10uM reading for `CCOC(=O)Cn1c(CN2CCN(C(=O)c3ccco3)CC2)nc2c1c(=O)n(C)c(=O)n2C` : -13.3

hERG current change (%, negative = inhibition) at 10uM reading for COc1cc(CN2CCCC(CO)(Cc3ccccc3F)C2)ccc1O (stereo not shown) : -22.5

hERG current change (%, negative = inhibition) at 10uM reading for `O=C(CN1CCCC1)Nc1ccc([N+](=O)[O-])cc1` : -22.6

hERG current change (%, negative = inhibition) at 10uM reading for `O=C(CN1CCOCC1)N/N=C/c1ccc(-c2ccc(Br)cc2)o1` : -67.1

hERG current change (%, negative = inhibition) at 10uM reading for `Cc1nn(C)cc1CN1CCC(n2nccc2NC(=O)CCCc2ccccc2)CC1` : -3.27

hERG current change (%, negative = inhibition) at 10uM reading for `CCOCCCNC(=S)N1CCCN(c2nc3cc(C)cc(C)c3cc2C#N)CC1` : -55.6

hERG current change (%, negative = inhibition) at 10uM reading for `O=C(CCCc1ccccc1)Nc1ccnn1C1CCN(Cc2ccccn2)CC1` : -15.2

hERG current change (%, negative = inhibition) at 10uM reading for `O=C(CSc1nnc(NC(=O)c2ccccc2F)s1)Nc1ccccc1F` : 30.9

hERG current change (%, negative = inhibition) at 10uM reading for CC(C)CCN1C(=O)c2ccccc2C1C(=O)NCc1cccnc1 (stereo not shown) : -16.1

hERG current change (%, negative = inhibition) at 10uM reading for `O=C(Nc1ccccc1)NC1CCN(CCCN2C(=O)c3ccccc3C2=O)CC1` : -61.4

hERG current change (%, negative = inhibition) at 10uM reading for `O=C(CN1CCOCC1)N/N=C/c1ccc(-c2ccc(C(=O)O)cc2)o1` : -12

hERG current change (%, negative = inhibition) at 10uM reading for `CCN1CCN(c2nc3ccccc3nc2NS(=O)(=O)c2ccc(NC(C)=O)cc2)CC1` : 5.21

hERG current change (%, negative = inhibition) at 10uM reading for `Cc1ccc(/C=N/NC(=O)c2ccco2)s1` : -2.98

hERG current change (%, negative = inhibition) at 10uM reading for `Cc1ccc([N+](=O)[O-])cc1-c1ccc(/C=N/NC(=O)CN2CCOCC2)o1` : -38.9

hERG current change (%, negative = inhibition) at 10uM reading for `O=C(CN1CCC(NC(=O)C2CC2)CC1)Nc1ccccc1[N+](=O)[O-]` : 22.1

hERG current change (%, negative = inhibition) at 10uM reading for CC(CN1CCC(n2nccc2NC(=O)CCCc2ccccc2)CC1)c1ccccc1 (stereo not shown) : -51.9

hERG current change (%, negative = inhibition) at 10uM reading for `Cc1ccc(Cn2c(C)c3cnn(CC(=O)NC4CCCC4)c(=O)c3c2C)cc1` : 7.2

hERG current change (%, negative = inhibition) at 10uM reading for CCOc1ccccc1NC(=O)COC(=O)C(Cc1ccccc1)NC(=O)c1ccco1 (stereo not shown) : -8.33

hERG current change (%, negative = inhibition) at 10uM reading for CCC(NC(=O)c1ccccc1NC(=O)c1ccco1)C(=O)NNC(=O)c1ccc(OC)cc1 (stereo not shown) : 10.3

hERG current change (%, negative = inhibition) at 10uM reading for `O=C(Cc1ccc(-c2ccccc2)cc1)Nc1ccccc1` : 19.1

hERG current change (%, negative = inhibition) at 10uM reading for O=C(NCCc1ccc(Cl)cc1)C1CCCN1C(=O)Nc1ccccc1 (stereo not shown) : -11.5

hERG current change (%, negative = inhibition) at 10uM reading for `CN(CC(=O)NCCCN1CCOCC1)S(=O)(=O)c1ccc(F)cc1` : 15.4

hERG current change (%, negative = inhibition) at 10uM reading for `CCN(CC)C(=O)COc1ccc(Br)cc1Cl` : -11.8

hERG current change (%, negative = inhibition) at 10uM reading for `Cc1ccc(-c2ccc(/C=N/NC(=O)CN3CCOCC3)o2)cc1[N+](=O)[O-]` : -29.5

hERG current change (%, negative = inhibition) at 10uM reading for `CC(=O)[C@@H]1[C@@H](C)N(Cc2ccccc2)C(=O)N[C@H]1c1ccccc1` : 10.4

hERG current change (%, negative = inhibition) at 10uM reading for `CCOC(=O)c1sc(NC(=O)c2ccncc2)c(C#N)c1C` : 22.8
